Numbers sourced from ChEMBL document CHEMBL3352790.

- test_description: Oral bioavailability in rat
- Type: ADME, organism-based
- settings: in vivo
readout_name: bioavailability (%)

• CCN(CC)CCCS(=O)(=O)N[C@H](CCc1ccccc1)c1nc(-c2ccc(OC)cc2)n[nH]1 = 63

###

- study_target: Growth hormone secretagogue receptor type 1 (Homo sapiens)
- Sequence (Q92847 whole entry): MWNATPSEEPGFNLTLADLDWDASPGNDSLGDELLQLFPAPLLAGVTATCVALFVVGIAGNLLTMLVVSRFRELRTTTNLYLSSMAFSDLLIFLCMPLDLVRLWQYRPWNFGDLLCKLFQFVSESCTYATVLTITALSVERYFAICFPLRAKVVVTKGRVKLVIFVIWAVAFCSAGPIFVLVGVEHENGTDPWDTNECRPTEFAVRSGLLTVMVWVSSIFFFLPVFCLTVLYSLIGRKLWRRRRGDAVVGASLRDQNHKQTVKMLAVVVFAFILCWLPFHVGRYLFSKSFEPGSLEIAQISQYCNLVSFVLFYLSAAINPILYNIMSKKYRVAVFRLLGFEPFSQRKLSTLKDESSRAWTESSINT
- test_description: Antagonist activity against human ghrelin receptor by FLIPR assay
pIC50: −log10 of the molar value.
Let's look at some compounds and their measured pIC50.
readout_name: pIC50

• CN1CCN([C@@H](C(=O)NNc2cc(C(F)(F)F)cc(C(F)(F)F)c2)c2ccccc2Cl)CC1 = 8.20
• O=C(NNc1cc(C(F)(F)F)cc(C(F)(F)F)c1)[C@@H](c1cccnc1)N1CCN2CCC[C@@H]2C1 = 8.40

###

- study_target: Growth hormone secretagogue receptor type 1 (Homo sapiens)
- test_description: Binding affinity to human ghrelin receptor by receptor binding assay
readout_name: Ki (nM)

- CCN(CC)CCCS(=O)(=O)N[C@H](CCc1ccccc1)c1nc(-c2ccc(OC)cc2)n[nH]1: 15
